target: Glucocorticoid receptor (Homo sapiens, UniProt P04150); assay: Displacement of [3H]dexamethasone from GR in human IM9 cells after 6 hrs by scintillation counting method
Sequence (P04150 whole entry): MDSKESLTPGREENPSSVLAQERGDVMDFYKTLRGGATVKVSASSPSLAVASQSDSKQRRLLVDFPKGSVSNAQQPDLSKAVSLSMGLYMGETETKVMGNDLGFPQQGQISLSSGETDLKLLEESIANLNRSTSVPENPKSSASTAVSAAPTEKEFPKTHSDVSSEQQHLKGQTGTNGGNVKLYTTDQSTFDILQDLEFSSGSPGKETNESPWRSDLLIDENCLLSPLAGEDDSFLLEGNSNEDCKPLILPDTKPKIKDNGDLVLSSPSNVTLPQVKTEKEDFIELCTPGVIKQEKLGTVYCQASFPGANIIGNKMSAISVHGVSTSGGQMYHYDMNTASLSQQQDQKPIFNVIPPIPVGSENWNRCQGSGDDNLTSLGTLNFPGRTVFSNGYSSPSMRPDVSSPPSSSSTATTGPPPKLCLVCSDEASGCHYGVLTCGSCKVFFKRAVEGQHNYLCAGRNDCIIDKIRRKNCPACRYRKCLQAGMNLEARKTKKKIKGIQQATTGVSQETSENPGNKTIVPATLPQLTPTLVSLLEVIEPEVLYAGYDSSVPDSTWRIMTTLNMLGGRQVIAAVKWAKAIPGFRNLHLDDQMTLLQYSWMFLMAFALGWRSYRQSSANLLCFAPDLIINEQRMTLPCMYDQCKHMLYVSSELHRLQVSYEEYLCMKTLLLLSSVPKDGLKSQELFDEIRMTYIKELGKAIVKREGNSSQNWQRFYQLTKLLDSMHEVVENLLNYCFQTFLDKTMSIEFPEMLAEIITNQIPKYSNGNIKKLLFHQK
pIC50: −log10 of the molar value.
observed.property: pIC50

P. Fc1ccc(-n2ncc3c2C=C[C@]2(CCCC=C2c2ccccc2)C3)cc1
Q. O[C@]1(c2ccccc2)CCCCC[C@@]12C=Cc1c(cnn1-c1ccc(F)cc1)C2
R. O[C@@]1(c2ccccc2)CCCC[C@@]12C=Cc1c(cnn1-c1ccc(F)cc1)C2
S. O[C@]1(Cc2ccccc2)CCCCC[C@@]12C=Cc1c(cnn1-c1ccc(F)cc1)C2
**Q:** Consider the compounds listed above. Rank them by pIC50 in ascending numerical order. A complete answer lists every label in the requested sequence.
**A:** S, P, Q, R
(S: 6.89, P: 7.70, Q: 8.02, R: 9.39)

Source: ChEMBL document CHEMBL4325866
